assayed-target: NHE3 (Homo sapiens)
Construct: expressed in transfected cells
Sequence (P48764 26-834): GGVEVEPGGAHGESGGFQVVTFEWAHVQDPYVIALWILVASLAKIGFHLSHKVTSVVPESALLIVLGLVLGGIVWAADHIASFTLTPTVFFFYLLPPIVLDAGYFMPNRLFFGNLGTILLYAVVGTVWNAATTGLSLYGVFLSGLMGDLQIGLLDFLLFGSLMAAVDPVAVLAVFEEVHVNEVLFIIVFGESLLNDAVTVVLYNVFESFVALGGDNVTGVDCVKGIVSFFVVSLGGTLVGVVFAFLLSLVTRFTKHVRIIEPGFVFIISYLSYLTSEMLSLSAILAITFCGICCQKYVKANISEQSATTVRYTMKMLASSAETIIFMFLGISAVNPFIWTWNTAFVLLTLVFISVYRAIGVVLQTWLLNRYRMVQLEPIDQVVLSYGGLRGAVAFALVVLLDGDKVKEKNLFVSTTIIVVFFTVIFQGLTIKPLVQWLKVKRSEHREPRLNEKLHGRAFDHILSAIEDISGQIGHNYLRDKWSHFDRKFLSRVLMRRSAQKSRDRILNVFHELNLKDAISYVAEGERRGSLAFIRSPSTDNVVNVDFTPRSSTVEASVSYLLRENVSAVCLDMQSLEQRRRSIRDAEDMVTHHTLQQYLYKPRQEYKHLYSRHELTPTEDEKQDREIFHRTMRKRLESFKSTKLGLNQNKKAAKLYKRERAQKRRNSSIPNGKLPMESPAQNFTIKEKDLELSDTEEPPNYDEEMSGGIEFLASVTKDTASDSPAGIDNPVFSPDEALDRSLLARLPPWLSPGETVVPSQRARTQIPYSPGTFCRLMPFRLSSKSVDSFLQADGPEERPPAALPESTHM
Sequence (Q99653 2-195 partner limits assumed): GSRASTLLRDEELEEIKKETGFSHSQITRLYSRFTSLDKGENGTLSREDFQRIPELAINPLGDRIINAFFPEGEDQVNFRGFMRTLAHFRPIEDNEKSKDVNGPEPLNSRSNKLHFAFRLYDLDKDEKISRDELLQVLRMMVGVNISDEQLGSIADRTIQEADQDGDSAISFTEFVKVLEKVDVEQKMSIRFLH
assay-overview: Cell-based assay of NHE-3 activity (persistent inhibition), human
assay-conditions: human Persistence, 60 min incubation then washout
property-label: % inhibition

O=C(NCCCCNC(=O)NCCOCCOCCNS(=O)(=O)c1ccc(O[C@H]2c3cc(Cl)cc(Cl)c3C[C@@H]2N2CCNCC2)c(F)c1)NCCOCCOCCNS(=O)(=O)c1ccc(O[C@H]2c3cc(Cl)cc(Cl)c3C[C@@H]2N2CCNCC2)c(F)c1	C (>70%)
CN(C)[C@H]1CCCN([C@H]2Cc3c(C#N)cc(Cl)cc3[C@@H]2Oc2ccc(S(=O)(=O)NCCOCCOCCNC(=O)NCCCCNC(=O)NCCOCCOCCNS(=O)(=O)c3ccc(O[C@H]4c5cc(Cl)cc(C#N)c5C[C@@H]4N4CCC[C@H](N(C)C)C4)cc3)cc2)C1	C (>70%)
CC(C)[C@H](COCCOCCNC(=O)NCCCCNC(=O)NCCOCCOC[C@H](NS(=O)(=O)c1ccc(O[C@H]2c3cc(Cl)cc(Cl)c3C[C@@H]2N2CCC[C@@H](N)C2)cc1)C(C)C)NS(=O)(=O)c1ccc(O[C@H]2c3cc(Cl)cc(Cl)c3C[C@@H]2N2CCC[C@@H](N)C2)cc1	C (>70%)

Source: patent US11242337B2
